assayExplanation: Particle size and distribution, Malvern Mastersizer 2000
Format: physicochemical
studyConditions: Crystal Form I, Malvern Mastersizer 2000

molecule: CN1C(=O)/C(=C2/C(=O)Nc3ccccc32)c2ccccc21 [NAT-0801, N-methylisoindigo]
Particle size d10: 3.249 μm

molecule: CN1C(=O)/C(=C2/C(=O)Nc3ccccc32)c2ccccc21 [NAT-1203, N-methylisoindigo]
Particle size d10: 5.295 μm

molecule: CN1C(=O)/C(=C2/C(=O)Nc3ccccc32)c2ccccc21 [NAT-1202, N-methylisoindigo]
Particle size d10: 5.035 μm

molecule: CN1C(=O)/C(=C2/C(=O)Nc3ccccc32)c2ccccc21 [NAT-0601, N-methylisoindigo]
Particle size d10: 2.506 μm

molecule: CN1C(=O)/C(=C2/C(=O)Nc3ccccc32)c2ccccc21 [NAT-1201, N-methylisoindigo]
Particle size d10: 3.599 μm
